System: green peach aphid (Myzus persicae)
Test: Control of green peach aphid, contact activity
Assay type: in vivo
Conditions: topical, 50 ppm, 72 hours, 25° C., read-out: Percentage mortality of green peach aphid, Contact
quantity.measured: mortality at 50 ppm (%)
Numeric answer only, unit % assumed.

- compound: "CSCc1cc(OC(=O)N(C)C)no1"
  mortality at 50 ppm (%): 100
- compound: "CN(C)C(=O)Oc1noc(C[S+](C)[O-])c1Cl (stereo not drawn)"
  mortality at 50 ppm (%): 100
- compound: "CN(C)C(=O)Oc1cc(CS(C)(=O)=O)on1"
  mortality at 50 ppm (%): 82
- compound: "CCSCc1onc(OC(=O)N(C)C)c1Cl"
  mortality at 50 ppm (%): 97
- compound: "CCS(=O)(=O)Cc1cc(OC(=O)N(C)C)no1"
  mortality at 50 ppm (%): 80

Now consider a different compound.
Please fill in: mortality at 50 ppm reported for CCSCc1cc(OC(=O)N(C)C)no1 = 100
